Tested on: RAW264.7
Experiment: Cytotoxicity against mouse RAW264.7 cells at 100 ug/ml after 72 hrs by MTT assay
Format: cell-based
Settings: raw264.7, 72 h
Hi there, I'd appreciate the recorded Activity for every entry that follows.
Give bare numbers, in %.

{"columns": ["MOLECULE", "Activity, %"],
 "data": [
  ["CC(O)C#CCO (stereo not drawn)", 100]
]}

Give Activity for each listed item.
1. CC(O)C#CC1(O)CCCCC1 (stereo not drawn)
2. CC(C)C(O)C#CC(C)(C)O (stereo not drawn)

4.2
0

* * *

Test: Cytotoxicity against human Hep2 cells assessed as cell death at 100 ug/ml after 72 hrs by MTT assay
Type: functional, HEp-2
Consider the cut-off 10%. If the recorded Activity is strictly smaller, the label is satisfied; if not, the label is not satisfied.

Solved cases below.
{"columns": ["MOLECULE", "CLASSIFICATION"],
 "data": [
  ["CC(O)C#CC(O)(c1ccccc1)c1ccccc1 (stereo not drawn)", "not satisfied"],
  ["CCC(O)C#CCCO (stereo not drawn)", "not satisfied"],
  ["CC(C)C(O)C#CC(C)(C)O (stereo not drawn)", "satisfied"]
]}

Quick check: does COc1cccc2c1C(=O)c1c(O)c3c(c(O)c1C2=O)C[C@@](O)(C(=O)CO)C[C@@H]3O[C@H]1C[C@H](N)[C@H](O)[C@H](C)O1 have Activity under 10%?
not satisfied

Quick check: does CC(O)C#CCO (stereo not drawn) have Activity under 10%?
not satisfied

Quick check: does CCC(C)(O)C#CCO (stereo not drawn) have Activity under 10%?
satisfied

Quick check: does CC[C@H](O)C#CCO have Activity under 10%?
not satisfied

* * *

Tested on: J774.A1
Experiment: Cytotoxicity against mouse J774.A1 cells at 100 ug/ml after 72 hrs by MTT assay
Type: cell-based
Settings: j774.a1, 72 h
MEASUREMENT LABEL: Activity (%)
Give bare numbers, in %.

Previously resolved entries follow.
{"columns": ["MOLECULE", "Activity (%)"],
 "data": [
  ["CC(O)C#CCO (stereo not drawn)", 100],
  ["CC(C)C(O)C#CC(C)(C)O (stereo not drawn)", 55.3],
  ["CC(O)CC#CCO (stereo not drawn)", 60.8]
]}

Give Activity for each listed item.
1. CCC(C)(O)C#CCO (stereo not drawn)
2. CC(C)C(O)C#CCCO (stereo not drawn)
3. CC(C)C(O)C#CCO (stereo not drawn)
4. COc1cccc2c1C(=O)c1c(O)c3c(c(O)c1C2=O)C[C@@](O)(C(=O)CO)C[C@@H]3O[C@H]1C[C@H](N)[C@H](O)[C@H](C)O1
5. CC(O)CC#CCCO (stereo not drawn)
6. CCCC(O)C#CCO (stereo not drawn)
7. CCC(O)C#CCCO (stereo not drawn)
8. CC(O)C#CCCO (stereo not drawn)

[61.2, 30.4, 2, 96, 15.7, 100, 42.6, 16.5]

Give Activity for each listed item.
1. CC(O)C#CC(O)(c1ccccc1)c1ccccc1 (stereo not drawn)
2. CC(O)C#CC1(O)CCCCC1 (stereo not drawn)
3. CC[C@@H](O)C#CCO
4. CCC(O)C#CCO (stereo not drawn)
5. CCCCCC(O)C#CCO (stereo not drawn)

93.1
57.5
0.2
100
100

Give Activity for each listed item.
1. CC[C@H](O)C#CCO
2. OCC#CC(O)c1ccccc1 (stereo not drawn)

1. 1.7
2. 17.1

* * *

Hi there, I'd appreciate the recorded Activity for every entry that follows.
Tested on: RAW264.7
Assay: Cytotoxicity against mouse RAW264.7 cells at 100 ug/ml after 72 hrs by MTT assay
Format: cell-based
Details: raw264.7, 72 h
One number for each entry, in %.

Previously resolved entries follow.
{"columns": ["MOLECULE", "TARGET", "Activity (%)"],
 "data": [
  ["CC[C@@H](O)C#CCO", "RAW264.7", 9.6],
  ["COc1cccc2c1C(=O)c1c(O)c3c(c(O)c1C2=O)C[C@@](O)(C(=O)CO)C[C@@H]3O[C@H]1C[C@H](N)[C@H](O)[C@H](C)O1", "RAW264.7", 96.5],
  ["CC[C@H](O)C#CCO", "RAW264.7", 19.5]
]}

Give Activity for each listed item.
1. OCC#CC(O)c1ccccc1 (stereo not given)
2. CCC(O)C#CCO (stereo not given)
3. CC(O)CC#CCCO (stereo not given)
4. CC(C)C(O)C#CCCO (stereo not given)
5. CC(O)CC#CCO (stereo not given)
6. CC(C)C(O)C#CCO (stereo not given)
7. CC(O)C#CCCO (stereo not given)

[16, 100, 19.3, 17.8, 8.5, 17.8, 9.4]

Give Activity for each listed item.
1. CCC(C)(O)C#CCO (stereo not given)
2. CCC(O)C#CCCO (stereo not given)
3. CC(O)C#CC(O)(c1ccccc1)c1ccccc1 (stereo not given)

1: 0; 2: 6.1; 3: 95

Give Activity for each listed item.
1. CCCC(O)C#CCO (stereo not given)
2. CCCCCC(O)C#CCO (stereo not given)

1: 100; 2: 100

* * *

Assay: Cytotoxicity against human Hep2 cells assessed as cell death at 100 ug/ml after 72 hrs by MTT assay
Assay type: functional, HEp-2
MEASUREMENT LABEL: Activity
Write the quantity with the unit trailing the number.

Previously resolved entries follow.
{"columns": ["COMPOUND", "Activity"],
 "data": [
  ["CC(C)C(O)C#CCO (stereo unspecified)", "42.7%"],
  ["CC(O)C#CCCO (stereo unspecified)", "2.2%"],
  ["CC[C@@H](O)C#CCO", "38.8%"],
  ["OCC#CC(O)c1ccccc1 (stereo unspecified)", "28.1%"],
  ["CCCC(O)C#CCO (stereo unspecified)", "100%"]
]}

Give Activity for each listed item.
1. CCCCCC(O)C#CCO (stereo unspecified)
2. CC(O)C#CC1(O)CCCCC1 (stereo unspecified)
3. CC(O)CC#CCCO (stereo unspecified)
4. CC(O)CC#CCO (stereo unspecified)
5. CC(C)C(O)C#CCCO (stereo unspecified)
6. CCC(O)C#CCO (stereo unspecified)

100%
9.3%
84.1%
14.8%
85.7%
100%
